Values were extracted from ChEMBL document CHEMBL4706490.

molecular target: Eukaryotic translation initiation factor 2 subunit 1 (Homo sapiens) (UniProt P05198); assay: Activation of eIF2alpha (unknown origin) assessed as fold stimulation ATF-4 surrogate eIF2alpha phosphorylation at 1.25 uM cell based Dual luciferase reporter assay; conditions: filed as activator
Sequence (P05198 whole entry): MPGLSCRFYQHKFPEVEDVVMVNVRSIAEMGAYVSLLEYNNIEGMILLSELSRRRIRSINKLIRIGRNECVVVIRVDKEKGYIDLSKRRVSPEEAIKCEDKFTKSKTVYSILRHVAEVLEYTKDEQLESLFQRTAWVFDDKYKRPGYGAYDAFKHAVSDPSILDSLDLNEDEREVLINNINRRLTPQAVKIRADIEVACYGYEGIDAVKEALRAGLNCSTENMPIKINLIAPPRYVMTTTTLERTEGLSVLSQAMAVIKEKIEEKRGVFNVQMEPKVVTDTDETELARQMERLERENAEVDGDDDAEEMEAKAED
quantityName: fold change (FC)
Just the number, please, no unit after it.

See these solved cases before continuing.
N#Cc1cc(NC(=O)N[C@H]2CC[C@H](Oc3ccc(C(F)(F)F)cc3)C2)cc(C(F)(F)F)c1    3.1
N#Cc1cccc(NC(=O)N[C@H]2CC[C@H](Oc3ccc(C(F)(F)F)cc3)C2)c1    0.8

Next, consider the following molecule.
Eukaryotic translation initiation factor 2 subunit 1 (Homo sapiens) (UniProt P05198) / fold change (FC) / N#Cc1cc(F)cc(NC(=O)NC2CC(Oc3ccc(C(F)(F)F)cc3)C2)c1 (trans isomer) : value?
2

====

Recorded measurements of fold change (FC), one per entry
target: Eukaryotic translation initiation factor 2 subunit 1 (Homo sapiens) (UniProt P05198); assay: Activation of eIF2alpha (unknown origin) assessed as fold stimulation ATF-4 surrogate eIF2alpha phosphorylation at 5 uM cell based Dual luciferase reporter assay; conditions: filed as activator
Form rule: numeric answer, no unit written next to it.

N#Cc1cc(NC(=O)NC2CC(Oc3ccc(C(F)(F)F)cc3)C2)cc(C(F)(F)F)c1 (cis isomer)    8.4
O=C(Nc1cccc(C(F)(F)F)c1)NC1CC(Oc2ccc(C(F)(F)F)cc2)C1 (cis isomer)    6.2

// next item, fold change (FC) requested
Any idea what fold change (FC) was measured for N#Cc1cccc(NC(=O)NC2CC(Oc3ccc(C(F)(F)F)cc3)C2)c1 (stereo in doubt; cis) ?
0.9
